- Test system: Human immunodeficiency virus 1
- ASSAY_INFO: Antiviral activity against wild type HIV-1 IIIB infected in human MT4 cells assessed as protection against virus-induced cytopathic effect incubated for 5 days by MTT assay
- Type: functional, organism-based
- DETAILS: Human immunodeficiency virus 1, IIIB, MT4, 120 h
pEC50: −log10 of the molar value.
Where pEC50 equals or exceeds 8, the correct label is rule met; where it does not, the label is rule not met.

# count of solved cases: 2
INSERT INTO results (chemical_string, classification) VALUES
  ('Cc1cc(C#N)cc(C)c1Oc1nc(Nc2ccc(C#N)cc2)nc(N)c1Br', 'rule met'),
  ('Cc1cc(/C=C/C#N)cc(C)c1Oc1nc(Nc2ccc(N3CCS(=O)(=O)CC3)c(F)c2)ncc1-c1ccc(N)nc1', 'rule met');

Q: Quick check: does Cc1cc(/C=C/C#N)cc(C)c1Oc1nc(Nc2ccc(N3CCS(=O)(=O)CC3)c(C#N)c2)ncc1-c1ccc(F)nc1 have pEC50 greater than or equal to 8?
Ans: rule not met

Q: Quick check: does Cc1cc(/C=C/C#N)cc(C)c1Oc1nc(Nc2ccc(N3CCN(S(C)(=O)=O)CC3)c(C#N)c2)ncc1-c1cnc(F)nc1 have pEC50 greater than or equal to 8?
Ans: rule not met

Q: Quick check: does Cc1cc(/C=C/C#N)cc(C)c1Oc1nc(Nc2ccc(N3CCN(S(C)(=O)=O)CC3)c(F)c2)ncc1-c1cccnc1 have pEC50 greater than or equal to 8?
Ans: rule not met

* * *

- ASSAY_INFO: Cytotoxicity against human MT4 cells assessed as reduction in cell viability incubated for 5 days by MTT assay
- Format: toxicity, cell-based
- DETAILS: time 5 day
OBSERVABLE: CC50 at 120 h

Here are 2 compounds. What values of CC50 at 120 h were reported for them?
1. Cc1cc(/C=C/C#N)cc(C)c1Oc1nc(Nc2ccc(N3CCN(S(C)(=O)=O)CC3)c(C#N)c2)ncc1-c1cccnc1
2. Cc1cc(C#N)cc(C)c1Oc1nc(Nc2ccc(C#N)cc2)nc(N)c1Br

Ans:
["179 µM", "> 4.6 µM"]

* * *

Give selectivity ratio for every item shown.
- ASSAY_INFO: Selectivity index, ratio of CC50 for cytotoxicity against human MT4 cells assessed as reduction in cell viability to EC50 for antiviral activity against human MT4 cells assessed as protection against virus-induced cytopathic effect
- Assay type: toxicity, cell-based
- DETAILS: read-out: Ratio CC50/EC50
One number for each entry.

Solved cases (10 shown):
INSERT INTO assay_data (chemical_string, observed) VALUES
  ('Cc1cc(/C=C/C#N)cc(C)c1Oc1nc(Nc2ccc(N3CCS(=O)(=O)CC3)c(F)c2)ncc1-c1cnc(F)nc1', 2270),
  ('Cc1cc(/C=C/C#N)cc(C)c1Oc1nc(Nc2ccc(N3CCS(=O)(=O)CC3)c(F)c2)ncc1-c1ccc(N)nc1', 239),
  ('Cc1cc(/C=C/C#N)cc(C)c1Oc1nc(Nc2ccc(N3CCS(=O)(=O)CC3)c(C#N)c2)ncc1-c1cnc(N)nc1', 22),
  ('Cc1cc(/C=C/C#N)cc(C)c1Oc1nc(Nc2ccc(N3CCS(=O)(=O)CC3)c(C#N)c2)ncc1-c1cncnc1', 258),
  ('Cc1cc(/C=C/C#N)cc(C)c1Oc1nc(Nc2ccc(N3CCN(S(C)(=O)=O)CC3)c(F)c2)ncc1-c1cnc(F)nc1', 95),
  ('Cc1cc(/C=C/C#N)cc(C)c1Oc1nc(Nc2ccc(N3CCS(=O)(=O)CC3)c(F)c2)ncc1-c1cccnc1', 4850),
  ('Cc1cc(/C=C/C#N)cc(C)c1Oc1nc(Nc2ccc(N3CCN(S(C)(=O)=O)CC3)c(C#N)c2)ncc1-c1cnc(N)nc1', 5390),
  ('Cc1cc(/C=C/C#N)cc(C)c1Oc1nc(Nc2ccc(N3CCS(=O)(=O)CC3)c(C#N)c2)ncc1-c1cccnc1', 1340),
  ('Cc1cc(/C=C/C#N)cc(C)c1Oc1nc(Nc2ccc(N3CCS(=O)(=O)CC3)c(F)c2)ncc1-c1cnc(N)nc1', 156),
  ('Cc1cc(/C=C/C#N)cc(C)c1Oc1nc(Nc2ccc(N3CCN(S(C)(=O)=O)CC3)c(F)c2)ncc1-c1ccc(N)nc1', 13000);

Here are 2 compounds. What values of selectivity ratio were reported for them?
1. Cc1cc(/C=C/C#N)cc(C)c1Oc1nc(Nc2ccc(N3CCN(S(C)(=O)=O)CC3)c(C#N)c2)ncc1-c1ccc(N)nc1
2. Cc1cc(/C=C/C#N)cc(C)c1Oc1nc(Nc2ccc(N3CCS(=O)(=O)CC3)c(C#N)c2)ncc1-c1cnc(F)nc1

Ans:
[25300, 110]

Data provenance is ChEMBL document CHEMBL6109097.
